# subject of test: Neu5Ac(a2-3)Gal(b1-4)GlcNAc(b1-2)Man(a1-3)[GlcNAc(b1-2)Man(b1-4)GlcNAc(b1-2)Man(a1-6)]Man(b1-4)GlcNAc(b1-4)GlcNAc
# protocol notes: glycan array binding signal (z-score within array); higher = stronger binding
# test conditions: glycan notation: IUPAC condensed, linker removed
The entries come from a sample that favours the strongest signals as a whole.
parameter: glycan array binding signal (z-score)
Format: numeric value only, no unit, no commentary.

Q) Name the recorded glycan array binding signal (z-score) for Ficolin B (Rattus norvegicus), P57756 (protein) MVLGSAALFVLSLCVTELTLHAADTCPEVKVLDLEGSNKLTILQGCPGLPGALGPKGEAGAKGDRGESGLPGHPGKAGPTGPKGDRGEKGVRGEKGDTGPSQSCATGPRTCKELLTRGYFLTGWYTIYLPDCRPLTVLCDMDTDGGGWTVFQRRIDGTVDFFRDWTSYKQGFGSQLGEFWLGNDNIHALTTQGTNELRVDLADFDGNHDFAKYSSFQIQGEAEKYKLILGNFLGGGAGDSLTSQNNMLFSTKDQDNDQGSSNCAVRYHGAWWYSDCHTSNLNGLYLRGLHKSYANGVNWKSWKGYNYSYKVSEMKVRLI .
A) 5.65
